Experiment: Metabolic stability in rat liver microsomes (RLMs)
Settings: rat, microsomes, Half Life (min) R3, RLM metabolic stability; replicate R3; 0-60 min
I'd appreciate it if you could supply half-life values for the items below.
One number for each entry, in min.

compound	half-life [min]
CN1CCC(=O)NCCSCCS(=O)(=O)CCSC[C@H](NC(=O)c2ccc(Cl)s2)C(=O)N[C@@H](Cc2ccccc2)C1=O	9.82
O=C1C[C@H]2CCCN2C(=O)[C@H](Cc2ccccc2)NC(=O)[C@@H](NC(=O)c2ccc(Cl)s2)CSCCS(=O)(=O)CCSCCN1 [peptide 11]	16.5
O=C1C[C@H]2CCCN2C(=O)[C@H](Cc2ccccn2)NC(=O)[C@@H](NC(=O)c2ccc(Cl)s2)CSCCS(=O)(=O)CCSCCN1	19
O=C1CCSC/C=C/CSCCNC(=O)[C@H](CNC(=O)c2ccc(Cl)s2)NC(=O)[C@H](Cc2ccccn2)N1	5.58
CC(C)[C@@H]1NC(=O)[C@@H](NC(=O)c2ccc(Cl)s2)CNC(=O)CCSCc2cccc(n2)CSCCNC1=O	20.3

Next compound, please.
(Q) Item O=C1CCSCc2cccc(n2)CSCCNC(=O)C2CN(C(=O)c3ccc(Cl)s3)CCN2C(=O)[C@H](CO)N1 (stereo partly drawn) has what recorded half-life?
(A) 20.3

====

Assay: in vivo
Details: rat, po
endpoint: bioavailability (%)
One number for each entry, in %.

compound	endpoint	u	reported_result
O=C1C[C@H]2CCCN2C(=O)[C@H](Cc2ccccc2)NC(=O)[C@@H](NC(=O)c2ccc(Cl)cc2)CCC=CCCCCN1 (mixture of isomers) [peptide 46]	bioavailability	%	18.4

(Q) Look up bioavailability for this compound: O=C1C[C@H]2CCCN2C(=O)[C@H](Cc2ccccc2)NC(=O)[C@@H](NC(=O)c2ccc(Cl)s2)CCC=CCCCCN1 [peptide 43]
(A) 4.5

====

Biological target: UniProt:P00734
Assay: Protease inhibition, Ki for human α-thrombin (fluorogenic substrate Z-Gly-Gly-Arg-AMC)
Type: biochemical
Conditions: average of R1-R3; read-out: Ki Average, human alpha thrombin inhibition
endpoint: Ki (µM)
Give bare numbers, in µM.

compound	subject_of_test	reported_result
O=C1C[C@H]2CCCN2C(=O)[C@H](Cc2ccccc2)NC(=O)[C@@H](NC(=O)c2ccc(Cl)cc2)CCC=CCCCCN1 (mixture of isomers) [peptide 46]	UniProt:P00734	0.0651

(Q) # Ki lookup, item O=C1C[C@H]2CCCN2C(=O)[C@H](Cc2ccccc2)NC(=O)[C@@H](NC(=O)c2ccc(Cl)cc2F)CCC=CCCCCN1
(A) 0.204

====

Please go through the items and note down their Residual thrombin activity: Top sample.
Target: human α-thrombin (Homo sapiens, UniProt P00734)
Experiment: Sub-library screen for active and permeable cyclic peptides (PAMPA plus thrombin inhibition)
Format: biochemical
Conditions: PAMPA acceptor well after 14 h, 5 μM donor; crude; slopes normalized to DMSO
Answers are plain numbers.

Examples with answers:
O=C1C[C@H]2CCCN2C(=O)[C@H](Cc2ccc(C(F)(F)F)cc2)NC(=O)[C@@H](NC(=O)c2ccc(Cl)s2)CSCc2cccc(n2)CSCCN1 93.6
O=C1C[C@H]2CCCN2C(=O)[C@@H](Cc2ccccc2)NC(=O)[C@@H](NC(=O)c2ccc(Cl)s2)CCCSCc2cccc(c2)CSCCN1 105.2
N#Cc1ccc(C[C@@H]2NC(=O)[C@@H](NC(=O)c3ccc(Cl)s3)CCCSC/C=C/CSCCNC(=O)C[C@H]3CCCN3C2=O)cc1 103.2
O=C1C[C@H]2CCCN2C(=O)[C@H](Cc2ccccc2)NC(=O)[C@@H](NC(=O)c2ccc(Cl)s2)CCCSCc2ccccc2CSCCN1 74.4
O=C1C[C@H]2CCCN2C(=O)[C@H](Cc2ccc(Cl)cc2)NC(=O)[C@@H](NC(=O)c2ccc(Cl)s2)CCSCc2cccc(n2)CSCCN1 87.1

Could you now consider this next compound?
(Q) Fill in: Residual thrombin activity: Top sample of O=C1CSCCNC(=O)C[C@H]2CCCN2C(=O)[C@H](Cc2ccccc2)NC(=O)[C@@H](NC(=O)c2ccc(Cl)s2)CSC1 is ___
(A) 93.6
